FYI, the data here is from the NIST ThermoML archive (doi:10.1016/j.fluid.2016.05.030).

- MEASUREMENT_CONTEXT: 308.15 K; 101.33 kPa; Liquid; Concentric cylinders viscometry
// NB: equality with 70 mPa·s counts as No; only viscosity strictly below is Yes

Worked examples follow.
COMPOUND | LABEL
CCCCCCCc1cccc[n+]1CC.O=S(=O)([N-]S(=O)(=O)C(F)(F)F)C(F)(F)F | No
CCCCCCCCc1cccc[n+]1CC.O=S(=O)([N-]S(=O)(=O)C(F)(F)F)C(F)(F)F | No

Query: Determine if CCCCc1cccc[n+]1CC.O=S(=O)([N-]S(=O)(=O)C(F)(F)F)C(F)(F)F shows viscosity strictly lower than 70 mPa·s.
Response: Yes

Query: Then CCc1cccc[n+]1CC.O=S(=O)([N-]S(=O)(=O)C(F)(F)F)C(F)(F)F [1,2-diethylpyridin-1-ium bis((trifluoromethyl)sulfonyl)imide] ?
Response: Yes

Query: Then CCCCCc1cccc[n+]1CC.O=S(=O)([N-]S(=O)(=O)C(F)(F)F)C(F)(F)F ?
Response: Yes

Query: Then CCCc1cccc[n+]1CC.O=S(=O)([N-]S(=O)(=O)C(F)(F)F)C(F)(F)F ?
Response: Yes
